Assay Notes: reduction of polyQ htt aggregates in cells – imaging, exon1htt(103Q)mCFP cells, high-content imaging, primary screen (AID 483);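 note: compound exposure lasted 3 days before fixation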;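 for nuclei count: percent of the per-plate median nuclei count of sample wells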
Condition Summary: exon1htt(103Q)mCFP cell line, aggregate imaging, at 2 µM; measured here: cell count, toxicity
Endpoint Name: nuclei count

1) Cc1ccc(S(=O)(=O)N(C)CC(=O)NC2CCCC2)cc1	90.7%
2) COc1ccc(CN(C)CC(=O)c2c(N)n(Cc3ccccc3)c(=O)n(C)c2=O)c(OC)c1	103%

// query Hello, please tell me recorded nuclei count for this one: "COc1ccc(N2CCN(C(=O)CSc3ccccc3N)CC2)cc1"
// result 96.1%

// query Determine its reported nuclei count: Cc1ccc(C(=O)C2COC(=O)C2)cc1 (configuration not stated)
// result 116%

// query Output nuclei count of COc1cc(C2C(C#N)=C(N)Oc3cc(N)ccc32)cc(OC)c1OC (configuration not stated)
// result 1.6%

---

Assay Notes: inhibitors of TNFa-induced NFkB p65 translocation, primary screen, imaging, HUVEC, MLSMR starter and 10KST1 sets (AID 438);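 note: compound added about 3h40 before a 20 min TNFalpha stimulation; signal is the nuclear over cytoplasmic p65 intensity ratio per well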
Condition Summary: HUVEC TNFa-induced p65 nuclear translocation; at 2 µM, stronger effect = higher value, 0% TNFa-plus-vehicle, 100% no-TNFa wells
Endpoint Name: inhibition (%)
Note: unit % is implicit; provide only the numeric part.

1. CC1C(c2ccccc2)N(C)CCC12NC(=O)NC2=O (stereo not given)	-0.8

// query Give inhibition for the following compound: CCOC(=O)C(NC(=O)C1CCCN1C(=O)OCc1ccccc1)C(=O)OCC (stereo not given)
// result 7.2

// query Answer with the recorded inhibition of "CCCNS(=O)(=O)c1ccc(OCC(=O)Nc2ccccc2F)cc1" only.
// result 8.2

// query Specify reported inhibition for the compound shown: "CCc1nc2c(cnn2-c2ccc(Cl)cc2)c(=O)n1-c1ccc2c(c1)OCCO2"
// result -7.7

---

Assay Notes: reduction of polyQ htt aggregates in cells – imaging, exon1htt(103Q)mCFP cells, high-content imaging, primary screen (AID 483);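 note: compound exposure lasted 3 days before fixation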
Condition Summary: exon1htt(103Q)mCFP cell line, aggregate imaging, at 2 µM; stronger effect = higher value
Endpoint Name: inhibition of aggregation (%)
Please give a number only; it is taken to be in %.

1. c1ccc(Cn2nnnc2C(c2ccccn2)N2CCOCC2)cc1 (stereo not given)	-13
2. O=C(Cn1c(=O)[nH]n(-c2ccccc2)c1=O)N1CCCc2ccccc21	-15.3
3. O=C(CN(Cc1ccco1)C(=O)CNS(=O)(=O)c1ccc(Cl)cc1)NCc1ccc(F)cc1	-10.4
4. N#Cc1c(N)nc(SCc2ccncc2)c(C#N)c1-c1cccs1	-2.2
5. COc1cccc(-c2cc(C(F)(F)F)n3nc(N)nc3n2)c1	18.9
6. CCOC(=O)N1CCC(N(C(=O)Nc2ccc(Cl)c(Cl)c2)C(C)CC)CC1 (stereo not given)	4.4
7. COc1cccc(N2CCN(c3c4c(nc5ncnn35)CCC4)CC2)c1	-4.1
8. CCN1C(=O)/C(=C/N2CCc3ccccc32)SC1=S	-22.3

// query In one line, give reported inhibition of aggregation of the entry "c1nnc(NC2=NCCCCC2)s1" .
// result 0.1

// query Dear colleague, please send me the reported inhibition of aggregation for "CCN1CCN(C(=O)N[C@@H](C(=O)N[C@@H]2C(=O)N3[C@@H]2SC(C)(C)[C@@H]3C(=O)O)c2ccccc2)C(=O)C1=O" when you can.
// result 2.8

---

Assay Notes: endothelial E-selectin expression blockers – imaging, HUVEC, immunofluorescence, MLSMR starter and 10KST1 sets, primary screen (AID 487);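 for inhibition: signal is fraction of cell area covered by stained E-selectin grains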
Condition Summary: HUVEC TNFalpha-induced E-selectin immunofluorescence imaging, at 2 µM; stronger effect = higher value
Endpoint Name: inhibition (%)
Output spec: scalar in %, unitless text.

Below, 2 molecules whose answers are already recorded.
1) COc1ccc(CCNC(=O)c2nc3ncccn3n2)cc1OC	-12.1
2) O=C1CCc2cc(OCCCCc3nnnn3C3CCCCC3)ccc2N1	-114

// query Note down inhibition recorded for "Cn1cc(C(=O)NC2CCCCCCC2)c(=O)c2cc(S(=O)(=O)N3CCCC3)ccc21"
// result -3.4

// query Report measured inhibition; entry is "Cn1c(CN2CCOCC2)nc2cc(NC(=O)c3ccccc3Cl)ccc21"
// result -19.9

// query Give inhibition for the following molecule: "CCN1CCN(C(=O)c2ccc3c(=O)n(CCC4=CCCCC4)c(=O)[nH]c3c2)CC1"
// result -29.3

---

Assayed System: Voltage-gated potassium channel subunit beta-2 (Rattus norvegicus) (UniProt P62483)
Sequence (P62483 whole entry, looked up): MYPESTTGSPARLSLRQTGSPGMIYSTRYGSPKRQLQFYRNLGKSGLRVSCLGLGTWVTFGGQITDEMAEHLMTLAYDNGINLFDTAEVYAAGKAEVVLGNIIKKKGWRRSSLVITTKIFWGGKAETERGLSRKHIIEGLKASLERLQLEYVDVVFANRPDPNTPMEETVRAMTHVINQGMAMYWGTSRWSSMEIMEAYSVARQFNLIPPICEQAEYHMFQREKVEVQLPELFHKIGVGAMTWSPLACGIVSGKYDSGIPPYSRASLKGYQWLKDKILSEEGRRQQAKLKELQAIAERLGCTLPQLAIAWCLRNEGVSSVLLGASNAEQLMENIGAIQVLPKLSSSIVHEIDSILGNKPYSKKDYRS
Assay Notes: enhancers of rat Kvbeta2 NADPH turnover – biochemical, NADPH fluorescence, primary screen (AID 623);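 note: fluorescence intensity change per second fitted from 20 to 320 s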
Condition Summary: Recombinant KvBeta, NADPH fluorescence decrease slope, 10 min; at 10 µM; stronger effect = lower value
Overview of recorded NADPH fluorescence slope for various compounds
Give the value as a plain number.

Some solved cases for reference:
1) CC1CC(C)CN(CCCNC(=O)COc2cc(=O)n(C)c3ccccc23)C1 (stereo unspecified)	-7e-05
2) O=C(CSc1nnc(-c2cccnc2)o1)Nc1ccccn1	5.1e-06
3) CC1CCN(S(=O)(=O)c2ccc(S(=O)(=O)NCC(=O)C(C)(C)C)cc2)CC1	-7.1e-05
4) COC(=O)c1cc(NC(=O)C2COc3ccccc3O2)cc(C(=O)OC)c1 (stereo unspecified)	-3e-05

Next, consider the following compound.
// query Quote NADPH fluorescence slope reported for "Clc1ccc(SCCn2ccnc2)cc1" please.
// result -2.6e-05

---

Assay Notes: endothelial E-selectin expression blockers – imaging, HUVEC, immunofluorescence, MLSMR starter and 10KST1 sets, primary screen (AID 487);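 for inhibition: signal is fraction of cell area covered by stained E-selectin grains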
Condition Summary: HUVEC TNFalpha-induced E-selectin immunofluorescence imaging, at 2 µM; stronger effect = higher value
Overview of reported inhibition across a group of compounds:
# unit: % | format: bare number

1. COc1ccccc1C(=O)n1nc(-c2ccccc2)nc1N	-55.5
2. COc1ccc(C(=O)NCC(=O)n2nc(C)cc2C)cc1OC	-38.7
3. CC(C)(C)NC[C@H](O)COc1nsnc1N1CCOCC1	-120
4. Cc1ccccc1NC(=O)N1C2CCCC1CC(NC(=O)C1CC1)C2 (stereo unspecified)	64.2
5. CC(=O)Nc1c(Cl)n(C(C)=O)c2ccccc12	-3.8
6. CC(=O)c1c(C)nc(C)nc1NC(=O)Cc1ccccc1	2.9
7. COC(=O)c1[nH]c(C)c(/C(O)=C2\C(=O)C(=O)N(CCN(C)C)C2c2ccccc2OC)c1C (stereo unspecified)	-33.4
8. Cc1ccccc1N(CC(=O)NCC1CCCO1)C(=O)C1(C)CC(=O)N=C2C=CC=CN21 (stereo unspecified)	-111

// query Entry "c1coc(-c2nnc(-c3cccs3)o2)c1" needs its inhibition filled in; supply it.
// result -7.2

// query Identify inhibition associated with the compound "CCCCn1cnc2c(cnn2-c2ccc(Cl)cc2)c1=O"
// result -72

// query Could you please provide reported inhibition for "CC1(C)CC(=O)c2cc(OCC(=O)N3CCN(c4ccccc4F)CC3)ccc2O1" ? Thanks!
// result -101

---

Assayed System: Muscarinic acetylcholine receptor M4 (Homo sapiens)
Assay Notes: M4-linked GIRK flux change, two-sided – cell-based, HEK293 M4/GIRK, thallium flux, BTC-AM, M4 allosteric agonist project, primary screen (AID 625);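 note: thallium influx through GIRK channels coupled to M4 in HEK293 cells with BTC-AM dye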
Condition Summary: at 10 µM, actives lie on both sides
Endpoint Name: fluorescence slope
Number only, no unit.

1. CCCCOc1ccccc1P(=O)(O)CP(=O)(c1ccccc1)c1ccccc1	0.00473

Consider the record given below.
// query Give the reported value of fluorescence slope for this record: "O=C(C1CCC1)N1CCc2cc(S(=O)(=O)Nc3ccc4c(c3)OCO4)ccc21"
// result 0.0066

---

Assay Notes: endothelial E-selectin expression blockers – imaging, HUVEC, immunofluorescence, MLSMR starter and 10KST1 sets, primary screen (AID 487);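 for nuclei count: 100% = median nuclei count of all wells on the same plate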
Condition Summary: HUVEC TNFalpha-induced E-selectin immunofluorescence imaging, at 2 µM; measured here: cell number, toxicity
Endpoint Name: nuclei count (%)
A number alone suffices; assume %.

1) O=C(CNS(=O)(=O)c1ccc(Br)s1)N1CCCC1	101
2) Cc1nnc(C)c2c(C)n(-c3ccc(Br)cc3)c(C)c12	111
3) COc1ccc(-c2cc(C(F)(F)F)nc(SCC(=O)NCc3ccco3)n2)cc1OC	103
4) O=C(NCCc1cccc(Cl)c1)c1cccnc1	119
5) COc1ccc(C(=O)N(Cc2ccco2)C(C(=O)NC2CCCC2)c2ccc(O)cc2)cc1OC (stereo not drawn)	103
6) COc1ccccc1-c1nnc2sc(-c3ccc(N(C)C)cc3)nn12	107
7) Cc1ccc(CNC(=O)C2CCCN(S(=O)(=O)c3cccnc3)C2)cc1 (stereo not drawn)	88.5
8) CCCCNC(=O)Nc1ccnn1C1CCCCC1	105
9) COCn1c(COc2ccccc2)nc2ccccc21	123
10) CCCc1[nH]nc2c1C(c1cccc(OC(=O)c3ccco3)c1)C(C#N)=C(N)O2 (stereo not drawn)	96.7

// query Provide only the value of recorded nuclei count for "Cc1cccc(N(C)C(=O)c2coc(=O)c3ccccc23)c1"
// result 104

// query Write down nuclei count measured for item "CCOC(=O)N1CCN(C(=O)Nc2ccc3oc(C)nc3c2)CC1"
// result 116

// query Supply measured nuclei count of "O=C(CCC(=O)N1CCN(S(=O)(=O)c2ccccc2)CC1)c1cccs1" in your reply.
// result 153

// query Please report nuclei count for the following compound: "Cc1c(C(=O)O)oc2ccc(S(=O)(=O)NCc3ccccc3)cc12"
// result 110

// query Return the recorded nuclei count value; entry: O=C(c1ccccc1)N1CCCCC(Sc2nnnn2-c2ccccc2)C1=O (stereo not drawn)
// result 134

// query Specify nuclei count for "O=C(Nc1ccc(S(=O)(=O)NC2CCCC2)cc1)c1cnccn1" and stop.
// result 117

// query Return the recorded nuclei count value; entry: Cc1cccc(CN2CCN(C(c3ccccc3)c3ccc(Cl)cc3)CC2)c1 (stereo not drawn)
// result 122

// query Please supply the value of reported nuclei count for the item "Cc1ccc2nc(NC(=O)C3CCN(S(=O)(=O)c4cccc5nsnc45)CC3)sc2c1"
// result 100
